Origin of values: patent US9499519B2

- target of assay: IGF-1R (Homo sapiens, UniProt P08069)
- Construct: purchased Millipore 14-802
- Sequence (P08069 31-1367): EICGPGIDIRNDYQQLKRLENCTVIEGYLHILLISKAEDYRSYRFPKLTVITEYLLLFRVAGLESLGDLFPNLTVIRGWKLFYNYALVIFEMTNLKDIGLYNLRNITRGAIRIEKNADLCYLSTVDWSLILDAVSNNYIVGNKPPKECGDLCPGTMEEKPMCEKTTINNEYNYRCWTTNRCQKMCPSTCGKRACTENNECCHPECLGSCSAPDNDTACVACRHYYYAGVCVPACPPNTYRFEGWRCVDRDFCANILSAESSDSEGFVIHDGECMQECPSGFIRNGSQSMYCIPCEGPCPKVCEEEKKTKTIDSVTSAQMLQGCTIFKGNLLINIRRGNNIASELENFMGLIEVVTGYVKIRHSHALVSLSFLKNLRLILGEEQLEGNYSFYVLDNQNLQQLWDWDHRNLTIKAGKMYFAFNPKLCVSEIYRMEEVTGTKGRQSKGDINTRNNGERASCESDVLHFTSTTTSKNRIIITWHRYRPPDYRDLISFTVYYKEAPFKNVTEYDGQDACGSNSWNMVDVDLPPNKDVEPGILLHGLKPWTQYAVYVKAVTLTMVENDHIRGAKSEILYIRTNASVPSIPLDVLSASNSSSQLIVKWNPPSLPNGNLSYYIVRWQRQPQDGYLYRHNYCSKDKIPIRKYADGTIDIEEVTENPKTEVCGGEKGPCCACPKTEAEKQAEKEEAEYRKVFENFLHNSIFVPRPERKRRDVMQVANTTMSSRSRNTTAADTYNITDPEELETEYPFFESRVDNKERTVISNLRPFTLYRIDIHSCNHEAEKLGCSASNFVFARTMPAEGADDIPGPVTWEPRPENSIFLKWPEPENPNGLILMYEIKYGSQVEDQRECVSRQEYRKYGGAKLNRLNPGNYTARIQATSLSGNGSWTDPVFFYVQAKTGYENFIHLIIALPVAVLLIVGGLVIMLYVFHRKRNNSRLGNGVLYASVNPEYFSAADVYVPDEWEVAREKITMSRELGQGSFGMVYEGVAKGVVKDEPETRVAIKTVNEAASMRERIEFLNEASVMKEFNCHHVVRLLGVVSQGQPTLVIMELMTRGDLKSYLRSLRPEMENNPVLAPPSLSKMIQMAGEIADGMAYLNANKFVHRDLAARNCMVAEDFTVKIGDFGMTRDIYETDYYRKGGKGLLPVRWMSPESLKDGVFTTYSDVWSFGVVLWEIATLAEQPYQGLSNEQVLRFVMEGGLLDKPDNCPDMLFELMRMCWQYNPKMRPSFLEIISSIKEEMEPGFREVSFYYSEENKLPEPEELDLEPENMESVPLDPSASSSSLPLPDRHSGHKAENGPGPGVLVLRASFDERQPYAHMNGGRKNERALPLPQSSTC
- experimental details: In vitro IGF-1R enzymatic assay (ADP-Glo kinase assay)
- Assay type: biochemical
- reported conditions: activated IGF-1R, 30 nM, average; read-out: % Inh @ 30 nM Avg
endpoint label: inhibition at 0.03 µM (%)

CC(C)c1cc(Nc2nc(N3CCCC3C(=O)Nc3ccc(F)nc3)nc3c2CCC3)on1 (racemic) [Compound 12b] :: 24

(a) O=C(Nc1cnccn1)C1CCCN1c1nc2c(c(Nc3cc(C4CC4)[nH]n3)n1)CCC2 (single isomer, unassigned) [Compound 6a]
(b) O=C(Nc1cnccn1)C1CCCN1c1nc2c(c(Nc3cc(C4CC4)[nH]n3)n1)CCC2 (single isomer, unassigned) [Compound 6b]
# query: argmin of inhibition at 0.03 µM over a and b Label of pick, please.
a
(a: 28%, b: 94%)
